Source listed as patent US6949648B2.

- Tested on: human COX-1 (Homo sapiens)
- Construct: made in house; host or cells: Sf-21 insect cells (recombinant baculovirus BAC-COX1, pFASTBAC1); microsome fraction
- Sequence (P23219 24-599): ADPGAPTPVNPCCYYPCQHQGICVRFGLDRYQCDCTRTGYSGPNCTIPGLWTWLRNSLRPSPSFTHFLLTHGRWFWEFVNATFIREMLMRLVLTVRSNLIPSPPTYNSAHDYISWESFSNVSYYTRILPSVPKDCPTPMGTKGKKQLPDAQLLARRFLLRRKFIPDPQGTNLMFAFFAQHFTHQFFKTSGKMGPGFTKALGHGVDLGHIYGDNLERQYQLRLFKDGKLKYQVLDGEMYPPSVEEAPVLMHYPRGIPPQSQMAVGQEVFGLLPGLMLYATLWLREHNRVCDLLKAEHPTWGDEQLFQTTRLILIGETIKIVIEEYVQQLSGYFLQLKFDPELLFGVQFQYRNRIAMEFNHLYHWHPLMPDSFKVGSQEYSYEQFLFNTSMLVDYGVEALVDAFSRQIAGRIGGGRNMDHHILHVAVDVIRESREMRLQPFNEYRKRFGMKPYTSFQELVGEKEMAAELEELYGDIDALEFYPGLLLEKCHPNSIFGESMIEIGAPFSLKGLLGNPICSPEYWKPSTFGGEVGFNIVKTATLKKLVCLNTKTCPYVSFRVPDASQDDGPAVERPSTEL
- Measurement description: Determination of COX-1 inhibitory activity (microsome fraction, chemiluminescence)
- Type: biochemical
- Measurement context: microsome fraction 40 μg, arachidonic acid, 37° C. 25 minutes preincubation; read-out: Repression rate IC50 (μM) COX-1
Endpoint: log10 IC50 (log10 of the value in µM)
Heads up, the numbers here are log10 of IC50 in µM units.

Solved entries (count: 3):
# Compound, log10 IC50
measured = [
    ("CCCNc1c2ccccc2nc2c1c(C)nn2-c1ccccn1", 1.34),
    ("O=c1c2ccccc2[nH]c2c1cnn2-c1ccccn1", 0.42),
    ("COC(=O)c1cccc2[nH]c3c(c(C)nn3-c3ccccn3)c(=O)c12", 0.30),
]

Field log10 IC50 (entry Cc1nn(-c2ccccn2)c2[nH]c3cc(F)c(F)cc3c(=O)c12.O [Example 2-92, monohydrate] ) reads -0.17

Field log10 IC50 (entry Cc1nn(-c2ccccn2)c2nc3ccccc3c(OC3CCCC3)c12 ) reads 0.62

Field log10 IC50 (entry Cc1nn(-c2ccccn2)c2[nH]c3cccc(F)c3c(=O)c12.Cl [Example 2-79, hydrochloride] ) reads 0.89

Field log10 IC50 (entry CCCOc1c2ccccc2nc2c1c(C)nn2-c1ccccn1 ) reads 0.86
